Give MIC for every item shown.
- System: Cryptococcus neoformans
- experiment: Antifungal activity against Cryptococcus neoformans LA314 assessed as reduction in fungal cell growth incubated for 48 hrs by broth microdilution method
- Format: functional
- condition-context: LA314, 48 h

Kindly note the recorded MIC for `CCCCOc1ccccc1N1CCN(CCc2nnnn2[C@@H](C)[C@](O)(Cn2cncn2)c2ccc(F)cc2F)CC1` , which is 0.12 to 16 µg/mL

Kindly note the recorded MIC for `C[C@H](n1nnnc1CCN1CCN(c2ccc([N+](=O)[O-])cc2)CC1)[C@](O)(Cn1cncn1)c1ccc(F)cc1F` , which is 0.12 to 16 µg/mL

Kindly note the recorded MIC for `C[C@H](n1nnc(CCN2CCN(c3ccc([N+](=O)[O-])cc3)CC2)n1)[C@](O)(Cn1cncn1)c1ccc(F)cc1F` , which is 0.25 to 16 µg/mL

Kindly note the recorded MIC for `C[C@H](n1nnc(CCN2CCN(Cc3ccccc3)CC2)n1)[C@](O)(Cn1cncn1)c1ccc(F)cc1F` , which is 0.25 to 16 µg/mL

Kindly note the recorded MIC for `CCCCOc1ccccc1N1CCN(CCc2nnn([C@@H](C)[C@](O)(Cn3cncn3)c3ccc(F)cc3F)n2)CC1` , which is 0.25 to 16 µg/mL

Kindly note the recorded MIC for CC(n1nnnc1CCN1CCN(c2cccc(C(F)(F)F)c2)CC1)C(O)(Cn1cncn1)c1ccc(F)cc1F (centres undefined) , which is 0.5 to 16 µg/mL

Kindly note the recorded MIC for `C[C@H](n1nnc(CCN2CCN(c3ccccn3)CC2)n1)[C@](O)(Cn1cncn1)c1ccc(F)cc1F` , which is 0.25 to 16 µg/mL

Kindly note the recorded MIC for OC(Cn1cncn1)(Cn1nnnc1CCN1CCN(c2ccccn2)CC1)c1ccc(F)cc1F (centres undefined) , which is 0.5 to 16 µg/mL

Kindly note the recorded MIC for COc1ccc(N2CCN(CCc3nnnn3CC(O)(Cn3cncn3)c3ccc(F)cc3F)CC2)cc1 (centres undefined) , which is 0.5 to 16 µg/mL

Kindly note the recorded MIC for CCCCOc1ccccc1N1CCN(CCc2nnn(C(C)C(O)(Cn3cncn3)c3ccc(F)cc3F)n2)CC1 (centres undefined) , which is 1 to 16 µg/mL

Kindly note the recorded MIC for CCCCOc1ccccc1N1CCN(CCc2nnnn2C(C)C(O)(Cn2cncn2)c2ccc(F)cc2F)CC1 (centres undefined) , which is 0.5 to 16 µg/mL

Kindly note the recorded MIC for CC(n1nnc(CCN2CCN(c3c(Cl)cccc3Cl)CC2)n1)C(O)(Cn1cncn1)c1ccc(F)cc1F (centres undefined) , which is 1 to 16 µg/mL

Kindly note the recorded MIC for OC(Cn1cncn1)(Cn1nnnc1CCN1CCN(c2ccccc2Cl)CC1)c1ccc(F)cc1F (centres undefined) , which is 0.5 to 16 µg/mL

Kindly note the recorded MIC for COc1ccccc1N1CCN(CCc2nnnn2CC(O)(Cn2cncn2)c2ccc(F)cc2F)CC1 (centres undefined) , which is 0.5 to 16 µg/mL

Kindly note the recorded MIC for COc1ccccc1N1CCN(CCc2nnn(CC(O)(Cn3cncn3)c3ccc(F)cc3F)n2)CC1 (centres undefined) , which is 1 to 16 µg/mL

Kindly note the recorded MIC for CC(n1nnc(CCN2CCN(Cc3ccccc3)CC2)n1)C(O)(Cn1cncn1)c1ccc(F)cc1F (centres undefined) , which is 1 to 16 µg/mL

Kindly note the recorded MIC for CC(n1nnc(CCN2CCN(c3ccccn3)CC2)n1)C(O)(Cn1cncn1)c1ccc(F)cc1F (centres undefined) , which is 1 to 16 µg/mL

Kindly note the recorded MIC for OC(Cn1cncn1)(Cn1nnc(CCN2CCN(c3cccc(Cl)c3)CC2)n1)c1ccc(F)cc1F (centres undefined) , which is 1 to 16 µg/mL

Kindly note the recorded MIC for OC(Cn1cncn1)(Cn1nnc(CCN2CCN(c3ccccn3)CC2)n1)c1ccc(F)cc1F (centres undefined) , which is 1 to 16 µg/mL

Cited source for all entries: ChEMBL document CHEMBL4393657
